meta.source: PubChem BioAssay

Test: modulators of CIT2-GFP expression in yeast, confirmation, S. cerevisiae, GFP fusion, cherry picks, mother/daughter gates (AID 2274)
Conditions: S. cerevisiae CIT2-GFP strain, flow cytometry, 3 h; measured here: mother cell gate; at 10 µM; stronger effect = higher value
Reported values of GFP response, % of DMSO for individual entries
The reply should be a number in %, with the unit left off.

Guide cases for GFP response, % of DMSO, answers given:
{"columns": ["compound", "GFP response, % of DMSO (%)"],
 "data": [
  ["COc1ccc(-c2noc(CCCc3ccccc3)n2)cc1OC", 96.6],
  ["CCOC(=O)/C=C1\\SCC(=O)N1Cc1nnc(-c2ccccc2Br)o1", 99.7],
  ["CC[n+]1cc(C)ccc1/C=C/c1ccc(N(C)C)cc1", 126],
  ["CN1c2ccsc2/C(=N/Nc2ccc(F)cc2)CS1(=O)=O", 109],
  ["Cc1ccc(-c2nc(NC(=O)c3nn(C)cc3[N+](=O)[O-])sc2C)cc1", 97.7],
  ["CCc1ccc2c(c1)/C(=C/C(=O)c1cccs1)C(=O)N2", 84.8],
  ["O=C1C=CC(=O)N1c1ccc(N2CCCCC2)cc1", 89],
  ["C/C(=N\\NC(=O)c1cccc(Br)c1)c1ccccn1", 101],
  ["C/C(=N\\NC(=O)Cc1ccc([N+](=O)[O-])cc1)c1cccnc1", 102],
  ["COc1ccc(-c2nnc(NC(=O)c3ccc([N+](=O)[O-])o3)o2)c(OC)c1", 103]
]}

Report GFP response, % of DMSO, nothing else, for this compound: CCCCC1OC23CCCCC2C(C#N)(C(=N)O3)C1(C#N)C#N (stereo not drawn) 98.7

Report GFP response, % of DMSO, nothing else, for this compound: O=C(Nc1c(-c2ccccc2)nc2ccccn12)c1ccco1 106

Report GFP response, % of DMSO, nothing else, for this compound: NNC(=O)c1ccc(COc2ccc3ccccc3c2)cc1 91.9

Report GFP response, % of DMSO, nothing else, for this compound: O=C(Nc1nc(-c2ccc(F)cc2)cs1)c1cnccn1 104

Report GFP response, % of DMSO, nothing else, for this compound: CCN(CC)CCCN(C(=O)c1ccc(Br)cc1)c1nc(-c2ccc(OC)cc2)cs1 98.2

Report GFP response, % of DMSO, nothing else, for this compound: O=C(CCc1ccc(S(=O)(=O)N2CCOCC2)cc1)Oc1ccccc1 109

Report GFP response, % of DMSO, nothing else, for this compound: CCc1nnc(NC(=O)c2ccc(S(=O)(=O)N(CC(C)C)CC(C)C)cc2)o1 101

Report GFP response, % of DMSO, nothing else, for this compound: CCOc1ccccc1N1CCN(C(=O)c2cccc(-c3ccc(O)cc3)c2)CC1 94.4

Report GFP response, % of DMSO, nothing else, for this compound: O=[N+]([O-])c1cc(S(=O)(=O)C(F)(F)F)ccc1Sc1nc2ccccc2s1 99.7

Report GFP response, % of DMSO, nothing else, for this compound: COC(=O)c1ccccc1NC(=O)c1nc(S(=O)(=O)Cc2ccccc2)ncc1Cl 103

Report GFP response, % of DMSO, nothing else, for this compound: O=S(=O)(Nc1ccc(Br)cc1)c1cccc2nonc12 95.6

Report GFP response, % of DMSO, nothing else, for this compound: Cc1ccc2c(c1)c(/C=C/c1cc[n+](C)cc1)c(C)n2C 177

Report GFP response, % of DMSO, nothing else, for this compound: COc1ccc(NC(=O)CCN2CCN(S(=O)(=O)c3cc(Cl)ccc3OC)CC2)cc1 102
